Reported IC50, human CYP3A4 (Homo sapiens).
Answers are plain numbers, in µM.

{"compound": "CCCCOC(=O)N=C(N)c1ccc(OCCCC2CCN(CCCOc3ccc(C(N)=NC(=O)OCCCC)cc3)CC2)cc1", "readout.name": "IC50", "unit.abbreviation": "µM", "measured.number": 45.4}

As a next step, examine the compound that follows.
Give the measured IC50 for N/C(=N\C(=O)OCc1ccccc1)c1ccc(OCCCN2CCN(CCCOc3ccc(/C(N)=N/C(=O)OCc4ccccc4)cc3)CC2)cc1 [Comparative Compound 1, reference compound]
4.73

* * *

system.under.test: UniProtKB P33261
Sequence (P33261 whole entry): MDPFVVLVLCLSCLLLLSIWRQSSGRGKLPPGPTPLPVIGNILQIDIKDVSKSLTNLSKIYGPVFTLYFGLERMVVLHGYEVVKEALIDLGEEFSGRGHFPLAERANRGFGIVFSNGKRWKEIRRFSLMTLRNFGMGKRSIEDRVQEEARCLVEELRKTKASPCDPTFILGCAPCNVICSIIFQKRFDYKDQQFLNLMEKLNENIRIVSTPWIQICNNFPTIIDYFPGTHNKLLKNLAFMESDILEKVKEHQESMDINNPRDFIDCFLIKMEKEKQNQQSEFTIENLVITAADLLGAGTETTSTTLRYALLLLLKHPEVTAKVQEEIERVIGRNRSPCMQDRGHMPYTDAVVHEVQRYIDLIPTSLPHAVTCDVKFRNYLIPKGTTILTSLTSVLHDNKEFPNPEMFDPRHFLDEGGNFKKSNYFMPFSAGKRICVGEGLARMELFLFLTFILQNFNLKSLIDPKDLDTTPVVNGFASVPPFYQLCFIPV
readout.name: pIC50
Answers are plain numbers, as −log10 of the molar value.

Please list pIC50 recorded for the molecule N/C(=N\C(=O)OCc1ccccc1)c1ccc(OCCCN2CCN(CCCOc3ccc(/C(N)=N/C(=O)OCc4ccccc4)cc3)CC2)cc1 [Comparative Compound 1, reference compound]
5.36
